tested on: DCAMKL1; construct: gene DCLK1; conditions: concentration: 1 μM, replicates: in singlicate; n = 1
# %Inh per entry

# molecule, value unit, %Inh
data = [
    ("COc1cc2ncn(-c3cc(OCc4ccc(S(C)(=O)=O)cc4)c(C(N)=O)s3)c2cc1OC", "%", 1),
    ("COc1cc(Nc2nccc(N3CCC(NC(=O)C4COc5ccccc5O4)C3)n2)cc(OC)c1OC (centres unmarked)", "%", 0),
    ("Nc1n[nH]c2nnc(-c3ccccc3)c(-c3ccccc3)c12", "%", 1),
    ("Nc1nc(-c2ccccc2F)c(-c2ccnc3ccccc23)s1", "%", 12),
    ("COc1cc2nccc(Nc3ccc(OCc4ccc(NC(C)=O)cc4)cc3)c2cc1OC.Cl", "%", 4),
    ("COC(=O)c1c(-c2ccccc2)c2cc(C)ccc2c(=O)n1Cc1ccccc1", "%", 0),
    ("CCc1nc(-c2cccc(C)c2)c(-c2ccncc2)s1", "%", 30),
    ("COc1cc(Nc2ccnc3ccc(C(F)(F)F)cc23)cc(OC)c1OC", "%", 5),
    ("Nc1nccc2scc(-c3ccc4c(c3)CCN4C(=O)Cc3ccccc3)c12", "%", 16),
    ("CCn1c(-c2nonc2N)nc2ccccc21", "%", 0),
    ("Cc1nnc(-c2ccc(C)c(-c3ccc(C(=O)O)cc3)c2)o1", "%", 0),
]

====

tested on: CDK5; settings: concentration: 1 μM, replicates: in singlicate; n = 1
# %Inh per entry

# molecule, value unit, %Inh
records = [
    ("O=C(Nc1n[nH]c2cc(-c3ccccc3F)ccc12)C1CC1", "%", 0),
    ("COc1ccc(-c2coc3ccc(-c4nnc(SCc5cccc(C#N)c5)o4)cc23)cc1", "%", 18),
    ("CCn1c(-c2ccoc2)nc2cnccc21", "%", 0),
    ("O=C(NCCNc1ccnc(Nc2ccc(F)cc2)n1)Nc1ccc2c(c1)OCO2", "%", 0),
    ("CN1C(=O)C(Nc2cc(Cl)c(O)c(Cl)c2)=C(c2ccc(Cl)cc2)C1=O", "%", 4),
    ("CCCNC(=O)Nc1ccc(Oc2ncnc3ccn(C)c23)cc1", "%", 19),
    ("COC(=O)c1c(-c2ccccc2)c2cc(C)ccc2c(=O)n1Cc1ccccc1", "%", 0),
    ("COC(=O)c1c(-c2ccccc2)c2cc(Br)ccc2c(=O)n1Cc1ccc(NC(=O)CCC(=O)O)cc1", "%", 0),
    ("OCCCNc1nccc(-c2c(-c3cccc(C(F)(F)F)c3)nn3cc(C(F)(F)F)ccc23)n1", "%", 0),
    ("COc1cc2ncn(-c3cc(OCc4ccncc4Br)c(C(N)=O)s3)c2cc1OC", "%", 0),
    ("COc1cccc(C2=C(N(C)c3ccccc3)C(=O)NC2=O)c1", "%", 0),
    ("CCS(=O)c1ccc(-c2coc3ccc(-c4nnc(C)o4)cc23)cc1 (stereo not drawn)", "%", 12),
    ("O=C1NC(=O)C(c2ccccc2)=C1Nc1cccc(O)c1", "%", 0),
    ("CCC(=O)c1c(-c2ccccc2)c2cc(Cl)ccc2c(=O)n1Cc1cc(S(C)(=O)=O)n(CCC(C)(C)O)n1", "%", 10),
    ("CCn1c(-c2nonc2N)nc2ccccc21", "%", 12),
    ("COc1cc2nccc(Nc3cccc(Oc4ccccc4)c3)c2cc1OC.Cl", "%", 0),
    ("Cc1cc(Nc2nc(-c3cccc(C)n3)nc3ccccc23)ccn1", "%", 0),
    ("COc1ccc(-c2cc3c(C)nc(N)nc3n([C@H]3CC[C@H](O)CC3)c2=O)cn1", "%", 0),
    ("Cc1ccc(-c2ccc3c(ccc4sc5c(c43)NC[C@@H](C)N=C5N(C)C)n2)cn1", "%", 0),
    ("Cl.c1ccc(Cn2cnc3cc(Nc4ncnc5ccccc45)ccc32)cc1", "%", 0),
    ("C[C@@H]1CC[C@H](C(=O)NC2CCCCC2)CN1c1cc(-c2ccc3c(N)n[nH]c3c2)nc(N)n1", "%", 15),
    ("COc1cc(Nc2nccc(N3CCC(NC(=O)C(C)c4ccc(Cl)cc4)C3)n2)cc(OC)c1OC (stereo not drawn)", "%", 0),
    ("CCS(=O)(=O)c1ccc(OC)c(Nc2ncc(-c3ccc(F)cc3)o2)c1.Cl", "%", 0),
    ("COc1cccc(-n2cnc3c(N)ncnc32)c1", "%", 0),
    ("Cc1nn2c(=O)cc(N3CCOCC3)nc2n1Cc1cccc(Cl)c1Cl", "%", 0),
    ("COc1ccc(CNC(=O)NC2CCN(c3ccnc(Nc4ccc(F)cc4)n3)C2)cc1 (stereo not drawn)", "%", 0),
    ("FC(F)(F)c1ccc(-c2ncn(CCCN3CCOCC3)c2-c2ccncc2)cc1", "%", 0),
    ("COc1cccc(C2=C(Nc3cccc(C(=O)O)c3)C(=O)NC2=O)c1", "%", 0),
    ("COc1ccc(-c2cc3c(C)nc(N)nc3n([C@H]3CC[C@H](OCCO)CC3)c2=O)cn1", "%", 19),
    ("COc1cc2ncn(-c3cc(OCc4ccc(S(C)(=O)=O)cc4)c(C(N)=O)s3)c2cc1OC", "%", 0),
    ("Fc1cccc(CSc2nnc(-c3ccc4c(c3)CCO4)o2)c1", "%", 4),
    ("Cc1nc(N(C)[C@H]2CN(C(=O)CC#N)CC[C@H]2C)c2cc[nH]c2n1", "%", 16),
    ("CCCC(=O)Nc1n[nH]c2ncc(-c3cccc4ccccc34)cc12", "%", 0),
    ("O=C(Nc1n[nH]c2nc(-c3ccccc3)c(Cl)cc12)C1CC1", "%", 0),
    ("Cc1cccc(-c2cc(-c3c[nH]nc3-c3ccccn3)ccn2)c1", "%", 0),
    ("O=c1cc(N2CCOCC2)nc2n(Cc3ccc(F)c(Cl)c3)ccn12", "%", 0),
]

====

pKd: −log10 of the molar value.
Parameter 'readout' = pKd; parameter 'system' = FLT3.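 Further: kd values determined as follow-up on hits from a single-replicate KINOMEscan panel screen.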

# smiles str, pKd
records = [
    ("Cl.NS(=O)(=O)c1cccc(Nc2cc(-c3ccc(F)cc3)n[nH]2)c1", 8.12),
    ("COc1ccc(-n2cnc3c(N)ncnc32)cc1", 6.92),
]

====

test system: INSRR; conditions: concentration: 1 μM, replicates: in singlicate; n = 1

# compound, %Inh / %
data = [
    ("CCC(=O)c1c(-c2ccccc2)c2cc(Cl)ccc2c(=O)n1Cc1cc(C(=O)NC2CC2)n(C)n1", 0),
    ("Nc1nc(-c2ccccc2F)c(-c2ccnc3ccccc23)s1 [GW560459]", 0),
    ("Cc1ccc(Oc2ccc(Nc3ncnc4cc[nH]c34)cc2C)cn1", 0),
    ("O=C(Nc1n[nH]c2nc(-c3ccccc3)c(Cl)cc12)C1CC1 [SB-734909]", 8),
    ("Cc1ccccc1COc1cc(-n2cnc3cc(Cl)ccc32)sc1C(N)=O [GW813349]", 23),
    ("CCC(=O)c1c(-c2ccccc2)c2cc(Cl)ccc2c(=O)n1Cc1cc(S(C)(=O)=O)n(CC(F)F)n1", 0),
    ("COC(=O)c1c(-c2ccccc2)c2cc(Br)ccc2c(=O)n1Cc1ccc(NC(=O)CCC(=O)O)cc1", 13),
    ("COc1cc(Nc2nccc(N3CCC(NC(=O)C(C)c4ccc(Cl)cc4)C3)n2)cc(OC)c1OC (stereo not drawn) [GSK1379757]", 0),
    ("O=C(Nc1n[nH]c2cc(-c3ccccc3F)ccc12)C1CC1 [SB-733371]", 9),
    ("CCn1c(-c2nonc2N)nc2ccccc21 [SB-693162/GW549034]", 48),
    ("Cl.NS(=O)(=O)c1cccc(Nc2cc(-c3ccc(F)cc3)n[nH]2)c1 [GW824645]", 0),
    ("Cc1ccc(-c2ccc3c(ccc4sc5c(c43)NC[C@@H](C)N=C5N(C)C)n2)cn1", 0),
    ("O=C(Nc1n[nH]c2nc(-c3ccccc3)c(Br)cc12)C1CC1 [SB-708998]", 9),
    ("COC(=O)c1c(-c2ccccc2)c2cc(C)ccc2c(=O)n1Cc1ccccc1", 1),
    ("CN1C(=O)C(Nc2cc(Cl)c(O)c(Cl)c2)=C(c2ccc(Cl)cc2)C1=O [SB-404321]", 0),
    ("COc1cc2ncn(-c3cc(OCCCc4ccccc4)c(C(N)=O)s3)c2cc1OC [GSK205189]", 3),
    ("Cc1cccc(-c2cc(-c3c[nH]nc3-c3ccccn3)ccn2)c1 [GW679395]", 0),
    ("O=C(NCc1cccs1)c1cc(C(=O)c2c(Cl)cccc2Cl)c[nH]1 [GW823670]", 0),
]
